Biological target: T1, mouse GIP receptor (mouse, UniProt Q0P543 19-460)
T1 sequence: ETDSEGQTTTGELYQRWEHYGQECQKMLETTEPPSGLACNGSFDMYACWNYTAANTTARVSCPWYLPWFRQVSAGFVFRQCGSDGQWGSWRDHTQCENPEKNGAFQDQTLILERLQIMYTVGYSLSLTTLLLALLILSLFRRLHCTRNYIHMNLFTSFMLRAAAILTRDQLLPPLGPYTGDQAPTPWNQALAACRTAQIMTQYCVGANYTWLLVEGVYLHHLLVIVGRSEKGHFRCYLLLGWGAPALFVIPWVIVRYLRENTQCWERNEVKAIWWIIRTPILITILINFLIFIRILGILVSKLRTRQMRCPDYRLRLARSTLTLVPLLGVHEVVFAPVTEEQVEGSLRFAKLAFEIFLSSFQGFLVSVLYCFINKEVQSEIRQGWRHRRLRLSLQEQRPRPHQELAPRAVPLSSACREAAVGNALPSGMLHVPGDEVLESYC
Experiment: cell-based or functional assay
*1 amine or outer side, *2 acyl side, *3 side chain or, on linkers, in order; H or OH if unused. Where no end group is shown, it is not given here. Side-chain parts run from the residue outwards. The star is where a group is joined. γGlu = O=C(O)[C@H](CCC(=O)[*:2])N[*:1]; Palmitoyl = CCCCCCCCCCCCCCCC(=O)*
measure: maximal % inhibition of GIP-induced cAMP in BHK cells expressing mGIPR (%)
The figure you give is taken to be in %; do not add the unit.

Previously resolved entries follow.
- TFISDYSIALDKIRQQEFVNWLLAQKG [[L14, R18, E21] hGIP(5-31)]: 93
- FISDYSIALDKIRQQEFVNWLLAQKG [[L14, R18, E21] hGIP(6-31)]: 91
- Ac-TFISDYK([γGlu-Palmitoyl])IALDKIRQQEFVNWLLAQKG [[Nα-Ac, L14, R18, E21] hGIP(5-31)-K11 (γE-C16)]: 100

Query binder follows.
Inquiry: Entry Ac-TFISDK([γGlu-Palmitoyl])SIALDKIRQQEFVNWLLAQKG [[Nα-Ac, L14, R18, E21] hGIP(5-31)-K10 (γE-C16)] : reported maximal % inhibition of GIP-induced cAMP in BHK cells expressing mGIPR = ?
Reply text: 100
